Listed here: items and their measured percent change in 14C-acetate incorporation into sterols at 0.01 µM.
# System: human hepatoma cells (HEP-G2)
# Assay info: Inhibition of 14C-acetate incorporation in digitonin-precipitatable steroids in HEP-G2 cells
# Assay type: cell-based
# Particulars: Homo sapiens, HepG2, 10^-8 mol/l
Number only, in %; omit the unit.

1) Cc1cc(C(=O)N2CCC(=Cc3ccc(C4=NCCO4)cc3)CC2)ccc1Cl [D] ... -55
2) CCN(CC)CC1CN=C(c2ccc(C=C3CCN(C(=O)c4ccc(Cl)cc4)CC3)cc2)O1 (centres unmarked) [T] ... -29

q: Return the recorded percent change in 14C-acetate incorporation into sterols at 0.01 µM value; entry: O=C(c1ccc(C(F)(F)F)cc1)N1CCC(Cc2ccc(C3=NCCO3)cc2)CC1 [H]
a: -62

q: Return the recorded percent change in 14C-acetate incorporation into sterols at 0.01 µM value; entry: O=C(c1ccc(Cl)cc1)N1CCC(=Cc2ccc(C3=NCCO3)cc2F)CC1 [L]
a: -52

q: Return the recorded percent change in 14C-acetate incorporation into sterols at 0.01 µM value; entry: CC(C)(C)c1ccc(C(=O)N2CCC(=Cc3ccc(C4=NCCO4)cc3)CC2)cc1 [AB]
a: -6
